- experimental target: Apolipoprotein L1 (Homo sapiens, UniProt O14791)
- assay comment: Inhibition of APOL1 G1 variant in human HEK293-T-REx cells measured by Thallium assay
reported endpoint: IC50

INSERT INTO measurements (compound, reported_endpoint, result) VALUES
  ('O=C(NC1(CO)CCC1)[C@H]1C[C@@H](c2c(-c3ccc(F)cc3)[nH]c3c(F)cc(F)cc32)C1', 'IC50', '0.25 nM'),
  ('O=C(NCC1CC(F)(F)C1)C1CC(Cc2c(-c3ccc(F)cc3)[nH]c3c(F)cc(F)cc23)C1 (centres undefined)', 'IC50', '> 1000 nM'),
  ('NC(=O)CNC(=O)O[C@H]1C[C@H](c2c(-c3ccc(F)cc3)[nH]c3c(F)cc(F)cc32)C1', 'IC50', '< 250 nM'),
  ('Cn1ccnc1CNC(=O)C1CC(Cc2c(-c3ccc(F)cc3)[nH]c3c(F)cc(F)cc23)C1 (centres undefined)', 'IC50', '> 1000 nM');

----------
- experimental target: Apolipoprotein L1 (Homo sapiens)
- assay comment: Inhibition of APOL1 G1 variant in human HEK293-T-REx cells measured by Thallium assay
pIC50: −log10 of the molar value.
reported endpoint: pIC50

INSERT INTO assay_data (molecule, reported_endpoint, result) VALUES
  ('CNC(=O)CN[C@H]1C[C@H](c2c(-c3ccc(F)cc3)[nH]c3c(F)cc(F)cc32)C1', 'pIC50', 9.60),
  ('O=C(NCC1(O)CCCC1)[C@H]1C[C@H](c2c(-c3ccc(F)cc3)[nH]c3c(F)cc(F)cc32)C1', 'pIC50', '< 6.00'),
  ('CN(CC1(CO)CCOCC1)C(=O)[C@H]1C[C@H](c2c(-c3ccc(F)cc3)[nH]c3c(F)cc(F)cc32)C1', 'pIC50', '< 6.00'),
  ('O=C(NCC1(O)CCCCC1)[C@H]1C[C@H](c2c(-c3ccc(F)cc3)[nH]c3c(F)cc(F)cc32)C1', 'pIC50', '< 6.00'),
  ('NC(=O)CNC(=O)[C@H]1C[C@@H](c2c(-c3ccc(F)cc3)[nH]c3c(F)cc(F)cc32)C1', 'pIC50', '< 6.00'),
  ('C[C@H](CO)N(C)C(=O)[C@H]1C[C@H](c2c(-c3ccc(F)cc3)[nH]c3c(F)cc(F)cc32)C1 (mixture of isomers)', 'pIC50', 9.60),
  ('O=C(NCC(F)F)O[C@H]1C[C@H](c2c(-c3ccc(F)cc3)[nH]c3c(F)cc(F)cc32)C1', 'pIC50', 9.60),
  ('CC(C)(CO)NC(=O)O[C@H]1C[C@H](c2c(-c3ccc(F)cc3)[nH]c3c(F)cc(F)cc32)C1', 'pIC50', 9.60),
  ('CC(C)(NC(=O)[C@H]1C[C@H](c2c(-c3ccc(F)cc3)[nH]c3c(F)cc(F)cc32)C1)C(N)=O', 'pIC50', 9.60),
  ('O=C([C@H]1C[C@H](c2c(-c3ccc(F)cc3)[nH]c3c(F)cc(F)cc32)C1)N1C[C@@H](CO)OCC12CC2', 'pIC50', '< 6.00'),
  ('NC(=O)CN[C@H]1C[C@H](c2c(-c3ccc(F)cc3)[nH]c3c(F)cc(F)cc32)C1', 'pIC50', '< 6.00'),
  ('O=C([C@H]1C[C@H](c2c(-c3ccc(F)cc3)[nH]c3c(F)cc(F)cc32)C1)N1CCCC(CCO)C1 (stereo partly specified)', 'pIC50', '< 6.00'),
  ('O=C(NCc1cnn(CC(F)(F)F)c1)C1CC(Cc2c(-c3ccc(F)cc3)[nH]c3c(F)cc(F)cc23)C1 (stereo unspecified)', 'pIC50', '< 6.00'),
  ('C[C@@H](NCC1CC(c2c(-c3ccc(F)cc3)[nH]c3c(F)cc(F)cc23)C1)C(=O)N(C)C (stereo partly specified)', 'pIC50', '< 6.00'),
  ('C[C@@H](O)[C@H](CO)NC(=O)[C@H]1C[C@H](c2c(-c3ccc(F)cc3)[nH]c3c(F)cc(F)cc32)C1', 'pIC50', '< 6.00'),
  ('O=C([C@H]1C[C@H](c2c(-c3ccc(F)cc3)[nH]c3c(F)cc(F)cc32)C1)N1CCC(O)(CO)CC1', 'pIC50', '< 6.00');

----------
Measured IC50 of individual entries
- experimental target: Apolipoprotein L1 (Homo sapiens)
- assay comment: Inhibition of APOL1 G1 variant in human HEK293-T-REx cells measured by Thallium assay
- Type: cell-based
reported endpoint: IC50

INSERT INTO results (compound, experimental_target, result) VALUES
  ('O=C(NC(CO)(CO)CO)O[C@H]1C[C@H](c2c(-c3ccc(F)cc3)[nH]c3c(F)cc(F)cc32)C1', 'Apolipoprotein L1 (Homo sapiens)', '< 0.25 µM'),
  ('COCCNC(=O)[C@H]1C[C@H](c2c(-c3ccc(F)cc3)[nH]c3c(F)cc(F)cc32)C1', 'Apolipoprotein L1 (Homo sapiens)', '> 1 µM'),
  ('Cc1cc(CNC(=O)O[C@H]2C[C@H](c3c(-c4ccc(F)cc4)[nH]c4c(F)cc(F)cc43)C2)on1', 'Apolipoprotein L1 (Homo sapiens)', '> 1 µM'),
  ('O=C(NCC1CCOC1)C1CC(Cc2c(-c3ccc(F)cc3)[nH]c3c(F)cc(F)cc23)C1 (centres undefined)', 'Apolipoprotein L1 (Homo sapiens)', '> 1 µM');

----------
- experimental target: Apolipoprotein L1 (Homo sapiens)
- assay comment: Inhibition of APOL1 G1 variant in human HEK293-T-REx cells measured by Thallium assay
pIC50: −log10 of the molar value.
Measured pIC50 of individual entries
reported endpoint: pIC50

INSERT INTO results (compound, result) VALUES
  ('O=C(NCC1CCOCC1)C1CC(Cc2c(-c3ccc(F)cc3)[nH]c3c(F)cc(F)cc23)C1 (stereo not drawn)', '< 6.00'),
  ('CC1(O)CC(NC(=O)O[C@H]2C[C@H](c3c(-c4ccc(F)cc4)[nH]c4c(F)cc(F)cc43)C2)C1 (stereo partly drawn)', '< 6.00'),
  ('O=C(N[C@@H]1CCOC1)[C@H]1C[C@@H](c2c(-c3ccc(F)cc3)[nH]c3c(F)cc(F)cc32)C1', '< 6.00'),
  ('O=C(NCC1(CO)COC1)NC[C@H]1C[C@H](c2c(-c3ccc(F)cc3)[nH]c3c(F)cc(F)cc32)C1', '< 6.00'),
  ('O=C1NCCCC1NC(=O)[C@H]1C[C@@H](c2c(-c3ccc(F)cc3)[nH]c3c(F)cc(F)cc32)C1 (stereo partly drawn)', '< 6.00'),
  ('CN(CC(O)CO)C(=O)[C@H]1C[C@H](c2c(-c3ccc(F)cc3)[nH]c3c(F)cc(F)cc32)C1 (stereo partly drawn)', '< 6.00'),
  ('O=C(NCc1cnoc1)[C@H]1C[C@H](c2c(-c3ccc(F)cc3)[nH]c3c(F)cc(F)cc32)C1', 9.60),
  ('O=C(NCCn1cncn1)[C@H]1C[C@H](c2c(-c3ccc(F)cc3)[nH]c3c(F)cc(F)cc32)C1', '> 6.60');

----------
- experimental target: UniProtKB O14791
- assay comment: Inhibition of APOL1 G1 variant in human HEK293-T-REx cells measured by Thallium assay
pIC50: −log10 of the molar value.
reported endpoint: pIC50

INSERT INTO assay_data (molecule, experimental_target, result) VALUES
  ('O=C(NCCOCCO)[C@H]1C[C@H](c2c(-c3ccc(F)cc3)[nH]c3c(F)cc(F)cc32)C1', 'UniProtKB O14791', '> 6.60'),
  ('NC(=O)CNC[C@H]1C[C@H](c2c(-c3ccc(F)cc3)[nH]c3c(F)cc(F)cc32)C1', 'UniProtKB O14791', '> 6.60'),
  ('NC(=O)C(CO)NCC1CC(c2c(-c3ccc(F)cc3)[nH]c3c(F)cc(F)cc23)C1 (stereo not drawn)', 'UniProtKB O14791', 9.60),
  ('COCCNC(=O)CC1CC(c2c(-c3ccc(F)cc3)[nH]c3c(F)cc(F)cc23)C1 (stereo not drawn)', 'UniProtKB O14791', '< 6.00'),
  ('O=C(NC[C@H]1C[C@H](c2c(-c3ccc(F)cc3)[nH]c3c(F)cc(F)cc32)C1)N1CCC[C@@H]1CO', 'UniProtKB O14791', '< 6.00'),
  ('O=C(NCC1CC(F)(F)C1)[C@H]1C[C@@H](c2c(-c3ccc(F)cc3)[nH]c3c(F)cc(F)cc32)C1', 'UniProtKB O14791', '< 6.00'),
  ('O=C(N[C@H]1CCOC1)[C@H]1C[C@@H](c2c(-c3ccc(F)cc3)[nH]c3c(F)cc(F)cc32)C1', 'UniProtKB O14791', '< 6.00'),
  ('CC1CC(NC(=O)[C@H]2C[C@H](c3c(-c4ccc(F)cc4)[nH]c4c(F)cc(F)cc43)C2)C(=O)O1 (stereo partly drawn)', 'UniProtKB O14791', '< 6.00');
